Target: human recombinant HDAC6 (Homo sapiens, UniProt Q9UBN7)
Sequence (Q9UBN7 whole entry): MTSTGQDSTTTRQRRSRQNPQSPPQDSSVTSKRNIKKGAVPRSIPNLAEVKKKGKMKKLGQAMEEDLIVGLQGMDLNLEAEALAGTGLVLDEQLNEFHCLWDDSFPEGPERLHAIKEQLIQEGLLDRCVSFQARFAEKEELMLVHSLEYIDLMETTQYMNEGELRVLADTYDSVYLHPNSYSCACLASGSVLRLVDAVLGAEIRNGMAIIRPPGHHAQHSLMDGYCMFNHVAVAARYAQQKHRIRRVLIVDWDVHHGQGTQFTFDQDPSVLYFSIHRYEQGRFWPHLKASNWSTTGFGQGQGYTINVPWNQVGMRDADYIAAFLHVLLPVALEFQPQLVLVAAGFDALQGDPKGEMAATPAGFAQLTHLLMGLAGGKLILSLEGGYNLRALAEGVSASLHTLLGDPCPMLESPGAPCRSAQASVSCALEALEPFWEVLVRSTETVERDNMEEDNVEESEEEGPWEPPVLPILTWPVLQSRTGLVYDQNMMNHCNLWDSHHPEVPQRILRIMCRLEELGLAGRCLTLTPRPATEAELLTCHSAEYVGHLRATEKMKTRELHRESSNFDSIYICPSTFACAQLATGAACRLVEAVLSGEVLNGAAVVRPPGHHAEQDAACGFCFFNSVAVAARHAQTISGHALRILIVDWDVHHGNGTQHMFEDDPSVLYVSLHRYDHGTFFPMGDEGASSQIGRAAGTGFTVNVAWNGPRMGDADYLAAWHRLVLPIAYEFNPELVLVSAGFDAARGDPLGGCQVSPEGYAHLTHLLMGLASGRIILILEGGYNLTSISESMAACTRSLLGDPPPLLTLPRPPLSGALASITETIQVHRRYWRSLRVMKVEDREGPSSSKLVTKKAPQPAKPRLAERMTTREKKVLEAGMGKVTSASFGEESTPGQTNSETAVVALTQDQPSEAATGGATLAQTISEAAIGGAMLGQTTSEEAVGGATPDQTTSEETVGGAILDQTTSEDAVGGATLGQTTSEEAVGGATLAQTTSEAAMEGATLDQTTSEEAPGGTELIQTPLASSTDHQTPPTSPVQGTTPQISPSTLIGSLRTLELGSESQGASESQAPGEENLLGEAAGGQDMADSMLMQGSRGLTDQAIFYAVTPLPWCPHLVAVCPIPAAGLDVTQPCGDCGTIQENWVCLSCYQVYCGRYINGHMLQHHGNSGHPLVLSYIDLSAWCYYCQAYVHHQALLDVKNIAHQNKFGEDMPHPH
Experiment: Fluorescence-based biochemical HDAC enzyme inhibition assay (ZMAL substrate)
measurement.name: IC50

Prompt: Could you tell me which IC50 is on file for `CC(=O)Nc1ccc(C(=O)Nc2cc(-c3ccccc3)ccc2O)cc1` ?
Response: > 10 µM

Prompt: Quick one: IC50 of `COc1cc(COc2ccc(-c3ccccc3)cc2NC(=O)c2ccc(NC(C)=O)cc2)c([N+](=O)[O-])cc1OC` ?
Response: > 10 µM

* * *

Biological target: HDAC1 (Homo sapiens)
Sequence (Q13547 whole entry): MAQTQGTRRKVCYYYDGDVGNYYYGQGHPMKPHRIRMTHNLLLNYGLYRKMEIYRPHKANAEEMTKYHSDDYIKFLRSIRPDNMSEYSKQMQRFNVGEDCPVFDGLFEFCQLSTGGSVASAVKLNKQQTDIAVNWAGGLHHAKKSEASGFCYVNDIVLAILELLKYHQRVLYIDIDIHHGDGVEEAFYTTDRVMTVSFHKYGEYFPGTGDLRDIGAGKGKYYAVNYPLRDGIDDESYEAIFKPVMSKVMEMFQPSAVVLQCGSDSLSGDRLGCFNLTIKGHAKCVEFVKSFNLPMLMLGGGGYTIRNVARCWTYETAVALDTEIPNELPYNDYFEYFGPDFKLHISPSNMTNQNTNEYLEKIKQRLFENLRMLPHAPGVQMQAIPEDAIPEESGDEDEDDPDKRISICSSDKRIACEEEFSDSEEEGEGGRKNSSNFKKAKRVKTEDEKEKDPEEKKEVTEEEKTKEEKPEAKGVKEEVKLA
Test: IC50-shift (preincubation time) experiments
Settings: HDAC1 IC50, preincubation time 5 min
measurement.name: pIC50
// pIC50 is dimensionless: -log10 of concentration (M)

Prompt: Find the recorded pIC50 belonging to `CC(=O)Nc1ccc(C(=O)Nc2cc(-c3ccccc3)ccc2O)cc1` and report it.
Response: 7.26
